System: A549 NSCLC
Experiment: NCI tumour cell line growth inhibition, 48 h
measured.quantity: TGI

Supply reported TGI belonging to this compound: Cc1cnc(SCCN2CCN(C)CC2)nc1-c1cc2ccccc2s1
16 µM

Supply reported TGI belonging to this compound: O=S(=O)(NCCO)c1cc[c]([Sb](=[O])([OH])[OH])cc1
> 100 µM

Supply reported TGI belonging to this compound: CC(=O)OCCOCCN1CCN(c2c(O)c3c(c(O)c2Cl)C(=O)C=CC3=O)CC1
3.94 µM

Supply reported TGI belonging to this compound: CC(=O)/C(=C\c1c(-c2ccccc2)[nH]c2ccccc12)S(=O)(=O)c1ccccc1
41.9 µM

Supply reported TGI belonging to this compound: Cc1cc(=O)c2ccccc2n1CCCCCCCCCCn1c(C)cc(=O)c2ccccc21
56.2 µM

Supply reported TGI belonging to this compound: CC(=O)c1cccc(NC(=O)c2ccc(NC3=C(Cl)C(=O)N(Cc4ccccc4)C3=O)cc2)c1
> 100 µM

Supply reported TGI belonging to this compound: CN(C)/C=C/c1c2c(nc3ccccc13)C(=O)c1ccccc1C2=O
8.72 µM

Supply reported TGI belonging to this compound: O=[N+]([O-])c1ccc(COc2cccc3cccnc23)cc1
> 100 µM

Supply reported TGI belonging to this compound: CC1(C)CC(=O)c2c(ccc(C(=O)C[C@@H](N)CO)c2N)O1
> 100 µM

Supply reported TGI belonging to this compound: Cc1[nH]c(=O)nc(N(CCO)/N=C/c2ccc(Cl)cc2)c1C(=O)Nc1ccc(Cl)cc1
> 100 µM

Supply reported TGI belonging to this compound: O=C(Sc1sc(=S)sc1SC(=O)c1ccccc1)c1ccccc1
70.6 µM

Supply reported TGI belonging to this compound: Cc1cn2c(/C=N/N=C(N)N)c(-c3ccsc3)nc2s1
34.7 µM

Supply reported TGI belonging to this compound: COC1=CC(=O)NCCN1
> 100 µM

Supply reported TGI belonging to this compound: Cc1c(N=NN(C)C)cc[n+]([O-])c1C
> 100 µM

Supply reported TGI belonging to this compound: O=P1(Oc2ccccc2)NCc2ncccc2O1 (centres undefined)
> 100 µM

Supply reported TGI belonging to this compound: CC(=O)OC1[C@H](n2ccnc2)C[C@H]2[C@@H]3CC=C4CC(N5CCCC5)CC[C@]4(C)[C@H]3CC[C@]12C (some centres undefined)
> 100 µM

Supply reported TGI belonging to this compound: O=c1[nH]c(=O)n2n1C1C=CC2CC1
> 100 µM

Supply reported TGI belonging to this compound: NC(=S)N/N=C1\CCCCC1C(O)(C(F)(F)Cl)C(F)(F)Cl (centres undefined)
> 10 µM

Supply reported TGI belonging to this compound: Nc1[nH]c(=S)c2c(N)n[nH]c2c1C(=O)Nc1ccc(Cl)cc1
> 100 µM

Supply reported TGI belonging to this compound: CN=C(NC)N(C)c1nc(=[N+](C)C)ss1
> 100 µM

Supply reported TGI belonging to this compound: COc1ccc(C#CC2=C(c3cc(OC)c(OC)c(OC)c3)C(=O)OC2)cc1
38.8 µM

Supply reported TGI belonging to this compound: CCn1c(=O)c2c3cc(OC(C)=O)ccc3oc2c2ccc(OC(C)=O)cc21
> 100 µM

Supply reported TGI belonging to this compound: C=CCn1c(-c2ccc(Cl)cc2Cl)csc1=Nc1c(C)n(C)n(-c2ccccc2)c1=O
23.1 µM

Supply reported TGI belonging to this compound: COC(=O)C(=O)C(CC(=O)Nc1cccc(C(F)(F)F)c1)C(=O)OC (centres undefined)
> 100 µM

---

Kindly state log10(TGI) for each of the entries shown.
Test system: OVCAR-3 ovarian
Assay: NCI tumour cell line growth inhibition, 48 h
The base-10 logarithm of TGI, taken with TGI in µM, is what appears here.

Supply reported log10(TGI) belonging to this molecule: CC1CC(C(=O)OC2OC(COC3OC(CO)C(OC4OC(C)C(O)C(O)C4O)C(O)C3O)C(O)C(O)C2O)C2CCC3(C)C(=CCC4(C)C3CCC3C(C)(CO)C(O)C(O)CC34C)C2C1C (stereo not given)
1.78

Supply reported log10(TGI) belonging to this molecule: C[C@]12CC[C@@H]3c4ccc(O)cc4CC[C@H]3[C@@H]1CC[C@@H]2NS(=O)(=O)c1ccc2ccccc2c1
0.86

Supply reported log10(TGI) belonging to this molecule: Cc1cc(S(N)(=O)=O)c(S/C(=N\Nc2ccc([N+](=O)[O-])cc2)c2ccc3ccccc3c2)cc1Cl
1.77

Supply reported log10(TGI) belonging to this molecule: Oc1c2c(c(O)c3ccccc13)C1(N=N2)c2ccccc2Oc2ccccc21
1.03

Supply reported log10(TGI) belonging to this molecule: O[C@H]1[C@H](O)[C@@H](Cn2nnc(-c3ccccc3)c2-c2ccccc2)OCO[C@@H]1Cn1nnc(-c2ccccc2)c1-c1ccccc1
0.96

Supply reported log10(TGI) belonging to this molecule: COc1ccc(-c2nnc(Nc3nc(O)c(C4=c5cc(F)ccc5=NC4=O)s3)o2)cc1
1.63

Supply reported log10(TGI) belonging to this molecule: CCCCCSC1C2C(=O)C(Br)=CC13CCNc1c(O)c4c5c(c13)=[N+]2CCC=5C=N4 (stereo not given)
0.16

Supply reported log10(TGI) belonging to this molecule: COc1ccc(-c2nc3cc(C(F)(F)F)ccc3n2CC2CCCN3CCCCC23)cc1 (stereo not given)
1.57

Supply reported log10(TGI) belonging to this molecule: CC(=O)c1ccc2c(c1)N(CCCN(C)C)c1ccccc1S2
1.50

Supply reported log10(TGI) belonging to this molecule: CS/C=C\C(=O)O[C@H]1C[C@@H]2[C@@H](O)c3occ(C)c3C[C@]2(C)[C@@H](C)C1
1.49

Supply reported log10(TGI) belonging to this molecule: CCN(Cc1cccc(F)c1F)c1ccc(CO)c(Cl)c1
0.11

Supply reported log10(TGI) belonging to this molecule: N#CCCN(CCC#N)c1ccc(C(N=Nc2ccc(Cl)cc2)=Nc2ccc(Cl)cc2)cc1
1.57

Supply reported log10(TGI) belonging to this molecule: COc1ccc(/C=C(/c2ccccc2)c2c(C)cc(C)c(/C(=C\c3ccc(OC)cc3)c3ccccc3)c2N=Nc2cc(C)cc(C)c2)cc1
1.48

Supply reported log10(TGI) belonging to this molecule: CCOC(=O)C1=C(C)NC(C)=C(C(=O)OCC)C1c1ccc(C)cc1
1.94

---

Test system: UACC-257 melanoma
Assay: NCI tumour cell line growth inhibition, 48 h
measured.quantity: TGI (µM)
Respond numerically; units are µM and should not be typed.

Supply reported TGI belonging to this molecule: O=C1CCCN1CCCN=c1cc2n(-c3ccc(Cl)cc3)c3ccccc3nc-2cc1Nc1ccc(Cl)cc1
24.7

Supply reported TGI belonging to this molecule: CCCCCCCCCCCCCCNCC(OCC)OCC
31.2

Supply reported TGI belonging to this molecule: O=C1c2c(c3c4ccccc4[nH]c3c3[nH]c4ccccc4c23)C(=O)N1Cc1ccccc1
13.3

Supply reported TGI belonging to this molecule: CC(=O)C1=C(C)N(c2ccccc2)C2(O)C=CC(=O)C3=C(O)c4ccccc4C(=O)C312 (stereo not given)
21

---

System: NCI-H460 lung
Assay: NCI tumour cell line growth inhibition, 48 h
measured.quantity: TGI

Supply reported TGI belonging to this compound: CC[C@H]1C=CCC[C@@]2(C[C@@H]3CC[C@@H]4[C@H](C(=O)OCCCCCCCCCCCCCCCC(=O)N(CCCNC(C)=O)C[C@H](CCNC(C)=O)OC(C)=O)[C@]5(CCC[C@@H](C)O5)NC(=[N+]34)N2)O1
1.14 µM

Supply reported TGI belonging to this compound: CNc1nc2c(C)ccc3[nH]c(N(C)C)nc3c-2n1
> 100 µM

Supply reported TGI belonging to this compound: CC(C)N(/C(F)=N\C(=O)Nc1ccccc1C(F)(F)F)C(C)C
> 100 µM

Supply reported TGI belonging to this compound: COC[C@@H](N=CN1CCc2cc(OC)c(OC)cc2C1)C(C)(C)C
> 100 µM

---

Kindly state TGI for each of the entries shown.
Test system: SNB-19 CNS
Assay: NCI tumour cell line growth inhibition, 48 h

Supply reported TGI belonging to this compound: CC(C)(O)CCc1ccc(O)c2c(=O)c3c(O)c4c(cc3oc12)O[C@H]1OC=C[C@@]41O
> 59.5 µM

Supply reported TGI belonging to this compound: COc1cccc(C=C2N=C(C)N(n3c(-c4ccccc4)nc4ccccc4c3=O)C2=O)c1
> 100 µM

Supply reported TGI belonging to this compound: NC(C(=O)OC(=O)c1ccccc1)C(=O)OC(=O)c1ccccc1
> 100 µM

Supply reported TGI belonging to this compound: CN(C)CCNc1nc2ccccc2c2occc12
> 100 µM

Supply reported TGI belonging to this compound: CC(=O)/C(=C\c1c(-c2ccccc2)[nH]c2ccccc12)S(=O)(=O)c1ccccc1
12.1 µM
